B1: P7S, Q5NV88 (parent)
chain: NFMLTQPHSVSESPGKTVTISCTRSSGSIASNYVQWYQQRPGSSPTTVIYEDNQRPSGVPDRFSGSIDSSSNSASLTISGLKTEDEADYYCQSYDSSN

# Variants of: B1
# conditions: Homo sapiens; pH 7.5; Thermal; Fluorescence; Sodium phosphate 20mM; transition: 2; structure 2W0K; whole UniProt chain shown
Recorded change of melting temperature, mutant - wild type (higher = more stable) for the following variants
Your answer is read as °C, so omit the unit and give the number.

Some entries whose results are on file:
[[record]]
var = "P7S"
recorded_number = -6.9

[[record]]
var = "H8S"
recorded_number = -0.4

[[record]]
var = "H8P"
recorded_number = 0.2


Record P7S H8S , field change of melting temperature, mutant - wild type (higher = more stable): -6.2
